- Tested on: PC49
- assay protocol: qHTS profiling for inhibitors of Plasmodium falciparum proliferation (AID 504749); note: nearly all actives have a fitted effect of over 60% in size; note: potency is the fitted concentration of half-maximal effect
- condition context: P. falciparum in erythrocytes, SYBR Green DNA, 72 h; series mostly up to 28.7 µM
Records with an inconclusive call do not appear. The source made the active and inactive calls. Calls come from the whole dose curve; as a rule, active = well fitted inhibition curve with a large enough effect; inconclusive = small, poorly fitted or top-dose-only effect; inactive = flat fitted curve, though single readings scatter.
endpoint: Potency

Consider the following illustrative entries.
compound="C[N+]1(CC2COC(c3ccccc3)(C3CCCCC3)O2)CCCCC1 (stereo not given)" endpoint=Potency reported="6.31 µM (active)"
compound="CC1CCc2c(N3CCC(O)CC3)c(F)cc3c(=O)c(C(=O)O)cn1c23 (stereo not given)" endpoint=Potency reported=inactive
compound=CCCCc1cc2ccccc2c(OCCN(C)C)n1 endpoint=Potency reported=inactive
compound=CC(C)(C)CC(C)(C)c1ccc(O)c(-n2nc3ccccc3n2)c1 endpoint=Potency reported="10 µM (active)"
compound=CCCN(CCc1cccs1)[C@H]1CCc2c(O)cccc2C1 endpoint=Potency reported="11.2 µM (active)"

Incoming: # lookup: Potency of `O=C(Oc1cccc2cccnc12)c1ccccc1`
Outgoing: inactive

Incoming: Could you do the same for `CCOC(=O)[C@H](CCc1ccccc1)N[C@@H](C)C(=O)N1[C@H](C(=O)O)C[C@H]2CCCC[C@@H]21` , please?
Outgoing: inactive

Incoming: Could you do the same for `CN(C)C(=O)Nc1ccc(Cl)c(Cl)c1` , please?
Outgoing: 3.55 µM (active)

Incoming: Could you do the same for `CCOC(=O)C(C#N)=C(c1ccccc1)c1ccccc1` , please?
Outgoing: inactive

Incoming: Could you do the same for `Oc1ccc(Cl)cc1Cc1cc(Cl)ccc1O` , please?
Outgoing: inactive

Incoming: Could you do the same for `OCCOCCN1CCN(C2=Nc3ccccc3Sc3ccccc32)CC1` , please?
Outgoing: inactive

Incoming: Could you do the same for `N/C(=N\N=C\c1ccc(Cl)cc1)N/N=C/c1ccc(Cl)cc1` , please?
Outgoing: inactive

Incoming: Could you do the same for `CNCCc1ccccn1` , please?
Outgoing: inactive

Incoming: Could you do the same for `C#C[C@]1(O)CC[C@H]2[C@@H]3CCc4cc(OC)ccc4[C@H]3CC[C@@]21C` , please?
Outgoing: inactive

Incoming: Could you do the same for `COc1cc([C@H]2Oc3cc([C@H]4Oc5cc(O)cc(O)c5C(=O)[C@@H]4O)ccc3O[C@@H]2CO)ccc1O` , please?
Outgoing: inactive
